The reported numbers originate from patent US7939540B2.

system: CYP1A2; conditions: human, hepatocytes, 10 μM
property.measured: Induction Ability compared to positive control (%) CYP1A2

# compound, unit.text, val
measured = [
    ("CNc1nc(-c2cccc(NC(=O)c3cccc(C(=O)OCCOC)c3)c2)c2cc(OC)c(OC)cc2n1", "%", 0.4),
    ("CNc1nc(-c2cccc(NC(=O)c3ccc(C(=O)OC(C)C)cc3)c2)c2cc(OC)c(OC)cc2n1", "%", 3.1),
    ("CNC(=O)c1cccc(C(=O)Nc2cccc(-c3nc(NC)nc4cc(OC)c(OC)cc34)c2)c1", "%", 1.2),
    ("CCCOC(=O)c1cccc(C(=O)Nc2cccc(-c3nc(NC)nc4cc(OC)c(OC)cc34)c2)c1", "%", 1.8),
    ("CNc1nc(-c2cccc(NC(=O)c3ccccc3)c2)c2cc(OC)c(OC)cc2n1 [Comparative example, reference compound]", "%", 35.0),
    ("CNC(=O)c1ccc(C(=O)Nc2cccc(-c3nc(NC)nc4cc(OC)c(OC)cc34)c2)cc1", "%", 0.5),
    ("CCOC(=O)c1ccc(C(=O)Nc2cccc(-c3nc(NC)nc4cc(OC)c(OC)cc34)c2)cc1", "%", 6.1),
    ("CNc1nc(-c2cccc(NC(=O)c3ccc(C(=O)OCCOC)cc3)c2)c2cc(OC)c(OC)cc2n1", "%", "−1.2"),
]

====

# Induction Ability compared to positive control (%) CYP1A2 per record follows
tested on: CYP1A2; conditions: human, hepatocytes, 1 μM
property.measured: Induction Ability compared to positive control (%) CYP1A2

# compound, val
measured = [
    ("CCOC(=O)c1ccc(C(=O)Nc2cccc(-c3nc(NC)nc4cc(OC)c(OC)cc34)c2)cc1", "−1.1"),
    ("CNc1nc(-c2cccc(NC(=O)c3cccc(C(=O)OCCOC)c3)c2)c2cc(OC)c(OC)cc2n1", 0.6),
    ("CNc1nc(-c2cccc(NC(=O)c3ccccc3)c2)c2cc(OC)c(OC)cc2n1 [Comparative example, reference compound]", 7.2),
    ("CNc1nc(-c2cccc(NC(=O)c3ccc(C(=O)OC(C)C)cc3)c2)c2cc(OC)c(OC)cc2n1", 0.5),
    ("CNC(=O)c1ccc(C(=O)Nc2cccc(-c3nc(NC)nc4cc(OC)c(OC)cc34)c2)cc1", "−2.0"),
    ("CCCOC(=O)c1cccc(C(=O)Nc2cccc(-c3nc(NC)nc4cc(OC)c(OC)cc34)c2)c1", 1.2),
    ("CNc1nc(-c2cccc(NC(=O)c3ccc(C(=O)OCCOC)cc3)c2)c2cc(OC)c(OC)cc2n1", "−1.7"),
    ("CNC(=O)c1cccc(C(=O)Nc2cccc(-c3nc(NC)nc4cc(OC)c(OC)cc34)c2)c1", 0.2),
]

====

# reported Induction Ability compared to positive control (%) CYP3A4; entries follow
tested on: CYP3A4; experiment: Induction potency of drug metabolizing enzyme (CYP) using cryopreserved human hepatocytes, CYP3A4 mRNA; conditions: test compound 1 μM, approximately 48 hours, mRNA normalised to GAPDH, positive control rifampicin 10 μM
property.measured: Induction Ability compared to positive control (%) CYP3A4

# compound, val
measured = [
    ("CNc1nc(-c2cccc(NC(=O)c3cccc(C(=O)OCCOC)c3)c2)c2cc(OC)c(OC)cc2n1 [Example 21]", "−1.2%"),
    ("CCOC(=O)c1ccc(C(=O)Nc2cccc(-c3nc(NC)nc4cc(OC)c(OC)cc34)c2)cc1 [Example 4]", "−5.6%"),
    ("CNc1nc(-c2cccc(NC(=O)c3ccc(C(=O)OC(C)C)cc3)c2)c2cc(OC)c(OC)cc2n1 [Example 7]", "−6.6%"),
    ("CNc1nc(-c2cccc(NC(=O)c3ccc(C(=O)OCCOC)cc3)c2)c2cc(OC)c(OC)cc2n1 [Example 20]", "−2.0%"),
    ("CNC(=O)c1cccc(C(=O)Nc2cccc(-c3nc(NC)nc4cc(OC)c(OC)cc34)c2)c1 [Example 16]", "−0.7%"),
    ("CCCOC(=O)c1cccc(C(=O)Nc2cccc(-c3nc(NC)nc4cc(OC)c(OC)cc34)c2)c1 [Example 14]", "0.7%"),
    ("CNC(=O)c1ccc(C(=O)Nc2cccc(-c3nc(NC)nc4cc(OC)c(OC)cc34)c2)cc1 [Example 5]", "−6.9%"),
    ("CNc1nc(-c2cccc(NC(=O)c3ccccc3)c2)c2cc(OC)c(OC)cc2n1 [Comparative example, reference compound]", "1.6%"),
]

====

We begin with a simple list: items and their reported Induction Ability compared to positive control (%) CYP1A1.
tested on: CYP1A1; conditions: human, hepatocytes, 10 μM
property.measured: Induction Ability compared to positive control (%) CYP1A1

# compound, val
rows = [
    ("CNc1nc(-c2cccc(NC(=O)c3ccc(C(=O)OC(C)C)cc3)c2)c2cc(OC)c(OC)cc2n1", 5.7),
    ("CNc1nc(-c2cccc(NC(=O)c3cccc(C(=O)OCCOC)c3)c2)c2cc(OC)c(OC)cc2n1", 0.1),
    ("CNc1nc(-c2cccc(NC(=O)c3ccccc3)c2)c2cc(OC)c(OC)cc2n1 [Comparative example, reference compound]", 51.9),
    ("CNC(=O)c1ccc(C(=O)Nc2cccc(-c3nc(NC)nc4cc(OC)c(OC)cc34)c2)cc1", 0.0),
    ("CNc1nc(-c2cccc(NC(=O)c3ccc(C(=O)OCCOC)cc3)c2)c2cc(OC)c(OC)cc2n1", 0.8),
    ("CCOC(=O)c1ccc(C(=O)Nc2cccc(-c3nc(NC)nc4cc(OC)c(OC)cc34)c2)cc1", 1.5),
    ("CNC(=O)c1cccc(C(=O)Nc2cccc(-c3nc(NC)nc4cc(OC)c(OC)cc34)c2)c1", 1.0),
    ("CCCOC(=O)c1cccc(C(=O)Nc2cccc(-c3nc(NC)nc4cc(OC)c(OC)cc34)c2)c1", 0.7),
]

====

system: CYP3A4; assay: Induction potency of drug metabolizing enzyme (CYP) using cryopreserved human hepatocytes, CYP3A4 mRNA; conditions: test compound 3 μM, approximately 48 hours, mRNA normalised to GAPDH, positive control rifampicin 10 μM
property.measured: Induction Ability compared to positive control (%) CYP3A4

# compound, val
measured = [
    ("CNc1nc(-c2cccc(NC(=O)c3cccc(C(=O)OCCOC)c3)c2)c2cc(OC)c(OC)cc2n1", "−1.6%"),
    ("CNC(=O)c1cccc(C(=O)Nc2cccc(-c3nc(NC)nc4cc(OC)c(OC)cc34)c2)c1", "−0.3%"),
    ("CNC(=O)c1ccc(C(=O)Nc2cccc(-c3nc(NC)nc4cc(OC)c(OC)cc34)c2)cc1", "−6.2%"),
    ("CCCOC(=O)c1cccc(C(=O)Nc2cccc(-c3nc(NC)nc4cc(OC)c(OC)cc34)c2)c1", "−0.1%"),
    ("CCOC(=O)c1ccc(C(=O)Nc2cccc(-c3nc(NC)nc4cc(OC)c(OC)cc34)c2)cc1", "−6.1%"),
    ("CNc1nc(-c2cccc(NC(=O)c3ccc(C(=O)OC(C)C)cc3)c2)c2cc(OC)c(OC)cc2n1", "−9.8%"),
    ("CNc1nc(-c2cccc(NC(=O)c3ccc(C(=O)OCCOC)cc3)c2)c2cc(OC)c(OC)cc2n1", "−2.1%"),
    ("CNc1nc(-c2cccc(NC(=O)c3ccccc3)c2)c2cc(OC)c(OC)cc2n1 [Comparative example, reference compound]", "10.8%"),
]

====

tested on: CYP1A2; details: human, hepatocytes, 3 μM
property.measured: Induction Ability compared to positive control (%) CYP1A2

# compound, unit.text, val
data = [
    ("CNc1nc(-c2cccc(NC(=O)c3ccccc3)c2)c2cc(OC)c(OC)cc2n1 [Comparative example, reference compound]", "%", 34.3),
    ("CNc1nc(-c2cccc(NC(=O)c3cccc(C(=O)OCCOC)c3)c2)c2cc(OC)c(OC)cc2n1 [Example 21]", "%", "−0.3"),
    ("CNc1nc(-c2cccc(NC(=O)c3ccc(C(=O)OCCOC)cc3)c2)c2cc(OC)c(OC)cc2n1 [Example 20]", "%", "−1.6"),
    ("CCCOC(=O)c1cccc(C(=O)Nc2cccc(-c3nc(NC)nc4cc(OC)c(OC)cc34)c2)c1 [Example 14]", "%", 3.0),
    ("CNC(=O)c1cccc(C(=O)Nc2cccc(-c3nc(NC)nc4cc(OC)c(OC)cc34)c2)c1 [Example 16]", "%", 3.9),
    ("CNc1nc(-c2cccc(NC(=O)c3ccc(C(=O)OC(C)C)cc3)c2)c2cc(OC)c(OC)cc2n1 [Example 7]", "%", 1.5),
    ("CNC(=O)c1ccc(C(=O)Nc2cccc(-c3nc(NC)nc4cc(OC)c(OC)cc34)c2)cc1 [Example 5]", "%", "−1.3"),
    ("CCOC(=O)c1ccc(C(=O)Nc2cccc(-c3nc(NC)nc4cc(OC)c(OC)cc34)c2)cc1 [Example 4]", "%", 0.6),
]
